System: S47 cells
Assay: Resazurin cytotoxicity screening, S47 cells
Format: cell-based
Settings: S47 cells, 72 hours, resazurin fluorescence, normalized to doxorubicin and DMSO
measured.quantity: EC50 (nM)

> print(dat)
                                   compound  measured.on  measured.quantity  measurement.qualifier  reported
1  COc1cccc2c1C(=O)c1c(O)c3c(c(O)c1C2=O)C[C@@](O)(C(=O)CO)C[C@@H]3O[C@H]1C[C@H](N)[C@H](O)[C@H](C)O1    S47 cells               EC50                      =       292
2  CC(C)n1nc(-c2ccc3oc(N)nc3c2)c2c(N)ncnc21    S47 cells               EC50                      =       9.5
3  CS(=O)(=O)N1CCN(Cc2cc3nc(-c4cccc5[nH]ncc45)nc(N4CCOCC4)c3s2)CC1    S47 cells               EC50                      =        12
4  COc1ncc(-c2ccc3nccc(-c4ccnnc4)c3c2)cc1NS(=O)(=O)c1ccc(F)cc1F    S47 cells               EC50                      =      0.46
5  Cc1cn(-c2cc(NC(=O)c3ccc(C)c(Nc4nccc(-c5cccnc5)n4)c3)cc(C(F)(F)F)c2)cn1    S47 cells               EC50                      >     10000
6  N.N.[Cl][Pt][Cl] [Cisplatin, (SP-4-2)-diamminedichloroplatinum(II)]    S47 cells               EC50                      =       790
7  COc1cccc2cc(-c3nc([C@H]4CC[C@H](C(=O)O)CC4)n4ncnc(N)c34)[nH]c12    S47 cells               EC50                      =       173
8  C[C@@H]1COCCN1c1cc(C2([S@](C)(=N)=O)CC2)nc(-c2cc[nH]c3nccc2-3)n1    S47 cells               EC50                      >     10000
9  Cc1[nH]c2ccccc2c1CCNCc1ccc(/C=C/C(=O)NO)cc1    S47 cells               EC50                      =       6.6
